assay.overview: Inhibitory activity against IgE receptor
Quick reference: pIC50 of the listed items.
The meaning of pIC50 here: minus log10 of the concentration in molar units.

A selection of reference data follows.
NC(=O)[C@H](Cc1ccccc1)NC(=O)[C@H](Cc1ccc2ccc(O)cc2c1)[C@H](O)C(=O)NO
6.12
CC(C)(C)[C@H](NC(=O)C(C[C@H]1CCc2ccccc2C1)[C@H](O)C(=O)NO)C(N)=O (some centres not stated)
7.15
NC(=O)[C@H](Cc1ccccc1)NC(=O)[C@H](Cc1nc2ccccc2s1)[C@H](O)C(=O)NO
6.49
CC(C)(C)[C@H](NC(=O)[C@H](Cc1ccc2ccc(F)cc2c1)[C@H](O)C(=O)NO)C(N)=O
7.10

For the compound NC(=O)[C@H](Cc1ccccc1)NC(=O)[C@H](Cc1ccc2cc(F)ccc2c1)[C@H](O)C(=O)NO , give its measured pIC50 value.
6.66

For the compound CC(C)(C)[C@H](NC(=O)[C@H](Cc1ccc2ccccc2c1)[C@H](O)C(=O)NO)C(N)=O , give its measured pIC50 value.
7.70

For the compound NC(=O)[C@H](Cc1ccccc1)NC(=O)[C@H](Cc1cc2ccccc2s1)[C@H](O)C(=O)NO , give its measured pIC50 value.
7.70

For the compound CNC(=O)[C@@H](NC(=O)[C@H](Cc1ccc2ccccc2c1)[C@H](O)C(=O)NO)C(C)(C)C , give its measured pIC50 value.
6.64

For the compound NC(=O)[C@H](Cc1ccccc1)NC(=O)[C@H](Cc1ccc2ccccc2c1)[C@H](O)C(=O)NO , give its measured pIC50 value.
6.22

* * *

assay.overview: Inhibitory activity against IgE receptor
measured.quantity: IC50 (nM)
# output: bare number, implied unit nM

A selection of reference data follows.
CC(C)(C)[C@H](NC(=O)[C@H](Cc1cnc2ccccc2c1)[C@H](O)C(=O)NO)C(N)=O
20
O=C(C[C@@H](Cc1ccc2ccccc2c1)C(=O)N[C@@H](Cc1ccccc1)C(=O)NCc1ccccc1)NO
1000

Okay, now this compound:
For the compound CC(C)(C)[C@H](NC(=O)C(C[C@@H]1CCc2ccccc2C1)[C@H](O)C(=O)NO)C(N)=O (stereo partly drawn) , give its measured IC50 value.
70

* * *

assay.overview: Inhibitory activity against IgE receptor
measured.quantity: pIC50
The meaning of pIC50 here: minus log10 of the concentration in molar units.

CNC(=O)[C@H](Cc1ccccc1)NC(=O)[C@H](Cc1ccc2ccccc2c1)[C@H](O)C(=O)NO
6.40
CC(C)(C)[C@H](NC(=O)[C@H](Cc1ccc2ncccc2c1)[C@H](O)C(=O)NO)C(N)=O
6.00
CNC(=O)[C@H](Cc1ccccc1)NC(=O)[C@H](Cc1cc2ccccc2o1)[C@H](O)C(=O)NO
7.00

Okay, now this molecule:
For the molecule NC(=O)[C@H](Cc1ccccc1)NC(=O)[C@H](Cc1ccc2ccc(F)cc2c1)[C@H](O)C(=O)NO , give its measured pIC50 value.
7.00

* * *

assay.overview: Inhibitory activity against IgE receptor
Quick reference: IC50 of the listed items.

NC(=O)[C@H](Cc1ccccc1)NC(=O)[C@H](Cc1ccc2ccc(OCc3ccccc3)cc2c1)[C@H](O)C(=O)NO
> 20 µM

Okay, now this compound:
For the compound CNC(=O)[C@@H](NC(=O)[C@H](Cc1ccc2c(c1)CCCC2)[C@H](O)C(=O)NO)C(C)(C)C , give its measured IC50 value.
> 10 µM
